test system: MDA-MB-435S; assay: Proliferation assay (IncuCyte live-cell imaging, cell confluency); format: cell-based; conditions: Homo sapiens, indicative, from AUC vs concentration (2-100 μM), read-out: Antiproliferative effect (IC50)
assay.endpoint: pIC50
Entry type: numeric. Quantity: pIC50, the -log10 of concentration in molar units.

Challenge: Item under review: COc1ccc(C(=O)NCCc2cc(Br)c(OCCCN(C)C)c(Br)c2)cc1Cl [Compound 5] . Reported pIC50?
Response given: 4.55

----------
assay: Cytotoxicity assay (CellTox Green Dye, IncuCyte); format: cell-based; conditions: human, DU145 cells, indicative, from AUC vs concentration (2-100 μM), read-out: Cytotoxic effect (EC50)
assay.endpoint: pEC50
# pEC50: negative log10 of molar concentration; output just the value

Challenge: Record request: pEC50 value, item COc1ccc(C(=O)NCCc2cc(Br)c(OCCCN(C)C)c(Br)c2)cc1Cl
Response given: 4.22

----------
system: hTERT RPE-1; assay: Proliferation assay (IncuCyte live-cell imaging, cell confluency); assay type: cell-based; conditions: Homo sapiens, hTERT-RPE1, indicative, from AUC vs concentration (2-100 μM), read-out: Antiproliferative effect (IC50)
assay.endpoint: IC50 (µM)
Write down the numeric answer in µM and omit the unit.

Challenge: Record COc1ccc(C(=O)NCCc2cc(Br)c(OCCCN(C)C)c(Br)c2)cc1Cl : what is its IC50 with hTERT RPE-1?
Response given: 12.5

----------
experiment: Cytotoxicity assay (CellTox Green Dye, IncuCyte); format: cell-based; settings: mouse, NIH-3T3 cells, indicative, from AUC vs concentration (2-100 μM), read-out: Cytotoxic effect (EC50)
assay.endpoint: EC50 (µM)
Write the number in µM without appending the unit.

Challenge: Query (molecule): COc1ccc(C(=O)NCCc2cc(Br)c(OCCCN(C)C)c(Br)c2)cc1Cl ; field requested: EC50
Response given: 4.58

----------
test system: LNCAP; assay: Proliferation assay (IncuCyte live-cell imaging, cell confluency); format: cell-based; conditions: Homo sapiens, indicative, from AUC vs concentration (2-100 μM), read-out: Antiproliferative effect (IC50)
assay.endpoint: IC50 (µM)
Please give a number only; it is taken to be in µM.

Challenge: Reported IC50 for COc1ccc(C(=O)NCCc2cc(Br)c(OCCCN(C)C)c(Br)c2)cc1Cl : what is it?
Response given: 26.4

----------
experiment: Cytotoxicity assay (CellTox Green Dye, IncuCyte); type: cell-based; conditions: human, SH-SY5Y cells, indicative, from AUC vs concentration (2-100 μM), read-out: Cytotoxic effect (EC50)
assay.endpoint: EC50 (µM)
Form entry: value (µM) — number only.

Challenge: Any idea what EC50 was measured for COc1ccc(C(=O)NCCc2cc(Br)c(OCCCN(C)C)c(Br)c2)cc1Cl ?
Response given: 15.3

----------
# inhibition at 40 µM values compiled below
Biological target: hKV10.1a (Homo sapiens)
Construct: expressed in transfected cells; host or cells: Xenopus laevis oocytes injected with cRNA transcribed from the hKV10.1a-pSGEM plasmid
Sequence (O95259 1-962 isoform O95259-2): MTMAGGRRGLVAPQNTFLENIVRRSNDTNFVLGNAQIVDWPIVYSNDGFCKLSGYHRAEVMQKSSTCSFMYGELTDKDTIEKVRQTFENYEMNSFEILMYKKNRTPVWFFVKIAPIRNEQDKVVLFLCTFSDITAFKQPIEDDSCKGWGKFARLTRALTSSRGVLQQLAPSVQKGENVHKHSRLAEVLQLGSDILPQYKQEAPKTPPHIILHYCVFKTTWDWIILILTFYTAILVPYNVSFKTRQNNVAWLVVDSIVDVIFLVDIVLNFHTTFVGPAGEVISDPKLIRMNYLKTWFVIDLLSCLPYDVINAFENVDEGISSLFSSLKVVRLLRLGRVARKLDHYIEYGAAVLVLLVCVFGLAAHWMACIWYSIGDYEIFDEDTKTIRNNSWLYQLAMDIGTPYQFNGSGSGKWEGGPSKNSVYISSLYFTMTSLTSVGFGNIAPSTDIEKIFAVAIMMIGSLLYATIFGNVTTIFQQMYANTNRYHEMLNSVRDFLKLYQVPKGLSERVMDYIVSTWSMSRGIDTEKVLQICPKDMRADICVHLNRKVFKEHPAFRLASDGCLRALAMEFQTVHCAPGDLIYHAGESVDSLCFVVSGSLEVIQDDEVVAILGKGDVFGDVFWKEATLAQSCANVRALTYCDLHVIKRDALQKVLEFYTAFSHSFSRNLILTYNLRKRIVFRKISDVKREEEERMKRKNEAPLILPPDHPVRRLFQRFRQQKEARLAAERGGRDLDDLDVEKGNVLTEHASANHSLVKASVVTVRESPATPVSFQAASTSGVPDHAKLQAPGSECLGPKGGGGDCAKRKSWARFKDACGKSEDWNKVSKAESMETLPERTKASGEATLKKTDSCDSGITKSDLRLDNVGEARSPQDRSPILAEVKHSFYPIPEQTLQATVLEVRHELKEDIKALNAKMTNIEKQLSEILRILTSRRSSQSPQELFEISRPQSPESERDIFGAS
Test: Two-electrode voltage-clamp recordings of KV10.1 currents in Xenopus laevis oocytes
Assay type: cell-based
Conditions: 40 μM, extracellular perfusion; average ± SEM; read-out: KV10.1 current inhibition
Excerpt: For the expression of hKV10.1a (GeneBank accession number: NM_002238.3) in Xenopus oocytes, the hKV10.1a-pSGEM plasmid was linearized with SfiI (ThermoFisher Scientific, Waltham, Massachusetts, USA) and transcribed using the T7 mMESSAGE-mMACHINE transcription kit (Ambion®, Carlsbad, California, USA). Stage V-VI Xenopus laevis (African clawed frog) oocytes were isolated by partial ovariectomy. […]
Supply the numeric figure in %, leaving out any unit text.

Solved entries:
CNCCCOc1c(Br)cc(CCNC(=O)c2cc(F)c(OC)c(F)c2)cc1Br = 14
COc1ccc(C(=O)NCCc2cc(Br)c(OCCCN(C)C)c(Br)c2)cc1F = 65
COc1ccc(C(=O)NCCc2cc(Br)c(OCCCN(C)C)c(Br)c2)cc1I = 79

Alright, here's another compound for you.
Challenge: Reported inhibition at 40 µM for COc1ccc(C(=O)NCCc2cc(Br)c(OCCCN(C)C)c(Br)c2)cc1C : what is it?
Response given: 80

Reference source: paper PMC5722316
